- Tested on: MS2 coat protein
- test: apparent KD of MS2 coat protein; higher = weaker reporter binding
- condition-set: Eterna round: R107; input ligand: tryptophan 2.4 mM
measurement-name: apparent KD of MS2 coat protein (nM)

sequence-entry	recorded-result
AGCGACAUGCGUGAUACCAGCUACAUGAGGAUCACCCAUGUGAGUAGGAAACUACUGUGUAGCCCUUGGCAGCACAGUGCAUGUC [Exclusion - Theophylline B (Freestyle 25)]	10.3
CGAAUACCAAUUGAUACCAGCAUGUUAACAUGAGGAUCACCCAUGUUAAGGAUAACAUAAUGCCCUUGGCAGCAACGUAAAUUCG [Aa]	19.6
CACAUGAGGAUCACCCAUGUCUGAACUGAAGGAGCGCUAAACAAGGCAGGUAGGUCGCGGAAUCCCGUGUGCAUAUGCACACGGG [9.Z]	18.9
AGACAUGAGGAUCACCCAUGUAGCAUGGAUACCAGAUGCAGAUUUAUCCCUUGGCAGCUGUGGUAAAGUGAUGCAUUGCUCCUAG [Exclusion - Theophylline A (Freestyle 6)]	23.8
AUGCUUAUCAGAAGGAGCGUCAUUAACAUGAGGAUCACCCAUGUAACAUUGAAUUCGAUGAGACAGGUAGGUCGCUGAAUAGUAA [SS-ArgB27]	37.5
AAUAUAAGUGUAAUUAUAUUUAUAUCUGAUACCAGACUCUCAUGUGUCCCUUGGCAGCAGUUACAUGAGGAUCACCCAUGUAUUA [JR_Nu_SSTheophyA_Sub025]	73.7

* * *

- Test system: MS2 coat protein
- test: apparent KD of MS2 coat protein; designed switch direction (-1 OFF switch, 1 ON switch): -1; higher = weaker reporter binding
- condition-set: input ligand: none
Mark 1 for reported apparent KD of MS2 coat protein of 50 nM or greater; mark 0 for anything smaller.

sequence-entry	class-assignment
GUCCGGCAUGUAGGAUAUGGAUCCGAUUAGGAUUUAGAAGGACAUGAGGAUCACCCAUGUACAUGUAAUUAGUCAUUACCGGAC [EXclNG1-LROPPY02] (Eterna round: R96, puzzle: Exclusion NG 1)	0
AUUUAGCAAGUUAGAUCCUACAUGAGGAUCACCCAUGUUGUUCGUCUCAUUUGAAGACAACACAAAAGUGUUGUCUU [Omei Mir OFFv1 B4] (Eterna round: R97, puzzle: Sensor, turn-off variant 1)	1
CUAAAUCAUGUAGGAUAUGCAUAGCAAAGCUAUGCAGAAGGACAUGAGGAUCACCCAUGUCAUUCCGUCUGGAGACAGACGGGA [Mat - Exclusion NG 1 - Mod of JL - D56] (Eterna round: R96, puzzle: Exclusion NG 1)	0
AUAAUGUAAGGAUAUCAGUCGACUAGCUGCGGCUAGUCGACUGAGAAGGUACAUGAGGAUCACCCAUGUGAUUA [E4/10-A3] (Eterna round: R97, puzzle: Exclusion 4)	1
AAAAAGGCAGGAUAUGCAUACACACAAAAAAAAAAACUGGGACAUGAGGAUCACCCAUGUAGAAGGGCCAAAAA [Dora Explored 8 - Jieux - Exclusion 2] (Eterna round: R96, puzzle: Exclusion 2)	1
GUACUGACAGGAUAUACAUGAGGAUCACCCAUGUCCUUAAGCUGACAAAAGUCAGCGAGUAGAAGGGUCUGUAC [Omei Ex3 Model Bachelor's Dilema v4] (Eterna round: R97, puzzle: Exclusion 3)	1
CCUAGUUGGUAAGGAUAUCCUACAUUGUUCUGGCCCGGGCAUGCUACAUGAGGAUCACCCAUGUGGGAGAAGGUGCGUCAUCGC [Design 17] (Eterna round: R96, puzzle: Exclusion NG 2)	1
AACUAUUUAGGAUAUCAGGCGAACCACAUGAGGAUCACCCAUGUGGCCCGUUGUGGUCCUUGAGAAGGAAAGAGUU [EX5 B.15] (Eterna round: R97, puzzle: Exclusion 5)	0

* * *

- Tested on: K4 kissing-loop RNA reporter;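 note: bound reporter read as fluorescence of individual clusters on recovered sequencing chips by microscopy, with normalized cluster intensities fitted with a binding model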
- test: apparent KD of K4 kissing-loop reporter; higher = weaker reporter binding
- condition-set: Eterna round: R107; input ligand: none
Below, each entry is listed with its recorded apparent KD of K4 kissing-loop reporter.

sequence-entry	unit-string	apparent KD of K4 kissing-loop reporter
UUAGUCUAGAGAGGAUAUCAGUGAUGUUGAUAUCAAGAUCUAAGAUAGAAUUCUAUCUUAGAUCAAUGAGAAGGCUCUAGACAUU [AK1.1 Exc FMN B]	nM	151
AUCAGUGUCUCACGCUACGACAUAUACGAUACCAGUCACCCUGAUGACCCUUGGCAGCGUCAACGAGUGAUGUUCGGGUUCUAGA [theeternabot_sameState_KL_Theo_A_1]	nM	404
AGCGCCUAAGCCGAUACCAGAAACGCGGUGCGUCGCACGAUUAACUAGGAAAGUGAUGUUUUCCCUUGGCAGCGGGACCUGUGAG [theeternabot_exclusion_KL_Theo_B_11]	nM	134
GAGGUACAGGCGGCCGCCACUAGUGAUGUUAGUGAUGUUAGAUAAAGUAUAUAUCGGCGUGUAGAUAGGACCGGGCCUGAUGGAG [ssrykmullin]	nM	60
UGUGUUGUUUUGAUGUUUGGUGUUUGUUGGCAGGAUAUCGUAGAGGCGAGAAGGGCUUGGGAGCGGUAUGAGUGAUGUUUGUAGG [deedwrmullin]	nM	364
GGCUAGACUUAGCUAGGUACAUAAUACGAUACCAGUCUAGAAAUAGACCCUUGGCAGCGUAGGCAGUGAUGUUGCCACUAGCUGA [Theo B SS t7]	nM	114
AGAAACUUGUAUACAGGGCAUGCCAGAGAUACCAGUCAAAUGGAAGGCCCUUGGCAGCUCAGGCGAGUGAUGUUCGCAGGCUGAC [Exclusion Theophylline A GF 20]	nM	142
CCACAAUAUGGAAGGAGCGCCAGUGAUGUUGGUGCUUGCUUUAGGUAAGACCGGCCUAUUUGGCAGGUAGGUCGCCAUAUUCAAC [Ageat]	nM	97.7
CUAUAAGUGCCGAGUGAUGUUCGGCCAAUACGAGGACCGGUACGGCCGCCACUCGGUCAGUGGGUGCCCACCGGGCAUGGCUGAC [Cecezaa]	nM	176
GGAUAGGACAGAGGAUAUGGUAGUGAUGUUACCAAACUGGUUAUCAAUGUUAGAAAAUUGACAAAACCAGAAGGCUGUCCUAUCG [KL-XFMN-B15]	nM	67.8
UUGUUUGGUUGAGAGGUUGGGCGAGAUGAUACCAGUAGAUAAGAAUACCCUUGGCAGCAUAAGAAAGAUAUAGUGAUGUUGUAUA [SSTheophA.N]	nM	553
GCAGUGAUGUUGCGCGGGUACGGUAGAGUGCGAGGACCGGUACGGCCGCCACUCGUACGGAACUGGCUAAUAUAUGGAUAGGUGA [V]	nM	446
AGACUACCACACUGUCAAUAGACAGUGAGGUAGGAUAUGCUGAAAAGCAGAAGGACCAGUGAUGUUGGUAGGUAGUCAAAAUAAA [FmnAX 11 #SwitchBubble #StaticStem #K4Early]	nM	84.8
UAACGCUGACAGCAACAAUUCGGGCCUGAUACCAGCAAUUUUUCAUGCCCUUGGCAGCAGAGUGAUGUUUUCUGUCUAUUUAGUC [theeternabot_exclusion_KL_Theo_A_23]	nM	864
AUUAUCAAUUUAUUAUAUAACUUUUCAGAAGGAGCGUGGAAGUACACAGGUAGGUCGCUGAAUAUAGGACUAGUGAUGUUAGUUA [JR_Nu_SSArginiA_Sub024]	nM	266
GGAUAGGACAGAGGAUAUGGAGAGUCUACAAAGUAGGCUCAUAAUCCUUGAAUGGAAGUGAUGUUUCCAGAAGGCUGUCCUAUCG [FmnBX 17 - #SwitchBubble #StaticStem #Palindromic]	nM	103
CUGCCUCACUCGGCCGCCACUGUAUAAAUGUGACAGUGAUGUUGUCGUCGGAAAGGGCACUUAGGCAGGACCGGGAGUUUCAGGC [theeternabot_exclusion_KL_Trp_B_20]	nM	801
AGAACUGUCUGAGAUACCAGCCAUAGGAGUGAUGUUCCUAGCUCCACAAAGUGGAGCCAUAGCCCUUGGCAGCUCAGACAGUUCA [Omei KL Theo B SS A v7]	nM	1150
GGUAGCAUGGCGGCCGCCACUUCAAAUGGAGUGAUGUUCCAAGGCAUCGCGAAAGCGAUGCCAGGAAGGACCGGGCCAUGCUACC	nM	522
GGUGACAACCAGAAGUGAUGUAUAGAAUAGCGAGGACCGGUACGGCCGCCACUCGUGAAGAGAAAGGAGUGAUGUUCCGUAAUGG [Kazoo C4]	nM	271
GCGCGUCAUGUCAGCGGUGACUACGUCGAUACCAGCAGGGAAACCUGCCCUUGGCAGCGACGCGCUGGAGUGAUGUUCCGACAGA [#2 Exclusion - Theophylline A Attempt #5 (HarryS)]	nM	192
UAGUGUCGCGCAGGAUAUACUGAUUGGAGUGAUGUUCCAAACAUGCACGUGUGACUUUUACAAGAAGUAGAAGGGCGUGAGACAU [Exclusion FMN B GF 22]	nM	184
AAAAUAACCCAGUGAUGUUGGUAUACAGAUACCAGCGACGAAAGUCGCCCUUGGCAGCUGUGGACGUACAAAAUAAGUACGUCCU	nM	1120
